Reported Δε values for the following molecules.
- Test system: calf-thymus DNA (CT-DNA)
- MEASUREMENT DESCRIPTION: Intercalation, absorption spectra with CT-DNA
- Type: binding
- PARTICULARS: bound to CT-DNA
- Method: For the DNA binding studies, Calf-thymus DNA (CT-DNA) was purchased from Sigma Aldrich. The lyophilized CT-DNA was dissolved in 10 mM Tris-HCl, pH 7.9, mixed gently and left overnight at 4° C. The purity of the CT-DNA solution was determined by measuring the ratio of UV absorbance at 260 and 280 nm. […] Then, the concentration of CT-DNA was determined from the absorbance at 260 nm using an extinction coefficient of 6600 M^–1cm^–1. […]
I only need the number, in M⁻¹ cm⁻¹, no unit after it.

These solved cases illustrate the format of a correct answer.
>  <MOLECULE>
Fc1ccc(N2CCN(C(=S)NN=Cc3ccc4ccccc4n3)CC2)cc1 [Compound 1b]

>  <Δε, M⁻¹ cm⁻¹>
2313.3

$$$$
>  <MOLECULE>
S=C(NN=C(c1ccccn1)c1ccccn1)N1CCN(c2cnccn2)CC1 [Compound 3c]

>  <Δε, M⁻¹ cm⁻¹>
3220.0

$$$$
>  <MOLECULE>
FC(F)(F)c1cnc(N2CCN(C(=S)NN=Cc3ccc4ccccc4n3)CC2)c(Cl)c1 [Compound 1c]

>  <Δε, M⁻¹ cm⁻¹>
2695.6

$$$$
>  <MOLECULE>
Oc1cccc2ccc(C=NNC(=S)N3CCN(c4cnccn4)CC3)nc12 [Compound 2b]

>  <Δε, M⁻¹ cm⁻¹>
1888.9

$$$$
>  <MOLECULE>
CN(C)C(=S)NN=C(c1ccccn1)c1ccccn1 [Dp44mT, reference compound]

>  <Δε, M⁻¹ cm⁻¹>
1673.3

$$$$
>  <MOLECULE>
S=C(NN=C(c1ccccn1)c1ccccn1)N1CCN(c2ccccn2)CC1 [Compound 3b]

>  <Δε, M⁻¹ cm⁻¹>
6133.3

$$$$
>  <MOLECULE>
S=C(NN=Cc1ccc2ccccc2n1)N1CCN(c2cnccn2)CC1 [Compound 1a]

>  <Δε, M⁻¹ cm⁻¹>
3175.6

$$$$
>  <MOLECULE>
Oc1cccc2ccc(C=NNC(=S)N3CCOCC3)nc12 [Compound 2a]

>  <Δε, M⁻¹ cm⁻¹>
1935.6

$$$$

Exercise: For S=C(NN=C(c1ccccn1)c1ccccn1)N1CCN(c2ccccc2)CC1 [Compound 3a] , what is its reported Δε?
Key: 4120.0
